system: bovine serum albumin (BSA) (Bos taurus)
experiment: Function test 1: static BSA binding capacity of ligand-functionalized regenerated cellulose membranes (BCA method)
measurementConditions: 150 mM NaCl; 20 mM piperazine, pH 6.0
In this section, each of the molecules is paired with its reported BSA Static Capacity.
Kindly answer with a numeric value in mg/m^2, unit omitted.

Worked examples follow.
C[N+](C)(C)CCN.[Cl-] [AETMA, 2-aminoethyltrimethylammonium chloride, reference compound] | 10
N=C(N)NCCCCN | 116
NCC(O)CN [DHP, 1,3-diamino-2-hydroxypropane] | 85
N[C@H](CO)Cc1c[nH]c2ccccc12 | 131
NCC(O)c1ccc(O)cc1 (centres unmarked) | 250

Read off the recorded BSA Static Capacity for `N[C@H](CO)Cc1ccc(O)cc1`
137

Read off the recorded BSA Static Capacity for `Nc1nc2ccccc2[nH]1`
108

Read off the recorded BSA Static Capacity for `N[C@H](CO)Cc1ccccc1`
10

* * *

System: neutral virus φX174
experiment: Function test 2: LRV for φX174 using functionalized membranes in flow mode, TE buffer pH 7.5
Assay type: binding, bacteriophage φX174
measurementConditions: 50 mM NaCl; TE buffer pH 7.5
Values of φX174 LRV strictly less than 1 map to rule met, and values of at least 1 map to rule not met.

The examples below pair each entry with its known result.
C[N+](C)(C)CCN.[Cl-] [AETMA, 2-aminoethyltrimethylammonium chloride, reference compound] | rule met
N[C@H](CO)Cc1ccc(O)cc1 | rule not met
NCC(O)c1ccc(O)cc1 (centres unmarked) | rule not met

For this compound, is φX174 LRV lower than 1? NCC(O)CN [DHP, 1,3-diamino-2-hydroxypropane]
rule not met

For this compound, is φX174 LRV lower than 1? `N=C(N)NCCCCN`
rule not met

* * *

system: bovine serum albumin (BSA) (Bos taurus, UniProt P02769)
Sequence (P02769 25-607): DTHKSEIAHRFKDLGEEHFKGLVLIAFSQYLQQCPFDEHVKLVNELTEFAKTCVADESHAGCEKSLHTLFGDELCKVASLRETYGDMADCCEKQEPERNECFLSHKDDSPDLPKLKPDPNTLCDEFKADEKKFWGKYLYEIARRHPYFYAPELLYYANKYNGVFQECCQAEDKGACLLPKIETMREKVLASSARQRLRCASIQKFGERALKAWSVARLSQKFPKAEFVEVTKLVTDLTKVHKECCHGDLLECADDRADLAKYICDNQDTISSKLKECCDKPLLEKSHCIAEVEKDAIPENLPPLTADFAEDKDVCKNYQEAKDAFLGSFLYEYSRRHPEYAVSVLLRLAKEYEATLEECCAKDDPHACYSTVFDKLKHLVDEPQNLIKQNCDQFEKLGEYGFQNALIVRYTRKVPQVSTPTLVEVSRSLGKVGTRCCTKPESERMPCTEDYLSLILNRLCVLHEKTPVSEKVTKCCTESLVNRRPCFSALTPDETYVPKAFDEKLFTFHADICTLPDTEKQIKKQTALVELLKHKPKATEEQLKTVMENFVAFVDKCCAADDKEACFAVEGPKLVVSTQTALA
experiment: Function test 1: static BSA binding capacity of ligand-functionalized regenerated cellulose membranes (BCA method)
measurementConditions: 50 mM NaCl; 20 mM piperazine, pH 6.0
In this section, each of the molecules is paired with its reported BSA Static Capacity.
Kindly answer with a numeric value in mg/m^2, unit omitted.

Fill: BSA Static Capacity (bovine serum albumin (BSA) (Bos taurus, UniProt P02769)) for this molecule `N[C@H](CO)Cc1c[nH]c2ccccc12`
297

Fill: BSA Static Capacity (bovine serum albumin (BSA) (Bos taurus, UniProt P02769)) for this molecule `N[C@H](CO)Cc1ccc(O)cc1`
284

Fill: BSA Static Capacity (bovine serum albumin (BSA) (Bos taurus, UniProt P02769)) for this molecule NCC(O)c1ccc(O)cc1 (centres unmarked)
290

Fill: BSA Static Capacity (bovine serum albumin (BSA) (Bos taurus, UniProt P02769)) for this molecule `N=C(N)NCCCCN`
319

Fill: BSA Static Capacity (bovine serum albumin (BSA) (Bos taurus, UniProt P02769)) for this molecule NCC(O)CN [DHP, 1,3-diamino-2-hydroxypropane]
392

Fill: BSA Static Capacity (bovine serum albumin (BSA) (Bos taurus, UniProt P02769)) for this molecule C[N+](C)(C)CCN.[Cl-] [AETMA, 2-aminoethyltrimethylammonium chloride, reference compound]
42

Fill: BSA Static Capacity (bovine serum albumin (BSA) (Bos taurus, UniProt P02769)) for this molecule `Nc1nc2ccccc2[nH]1`
204

Fill: BSA Static Capacity (bovine serum albumin (BSA) (Bos taurus, UniProt P02769)) for this molecule `N[C@H](CO)Cc1ccccc1`
46
